B1: MATN2 (parent)
chain: TDDSYSCHCLKGFTLNPDKKTCRR

# Variants of: B1
# Experiment summary: protein stability index of a GFP-peptide fusion (GPS, HEK-293T) (PSI 1-6); higher = more stable;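 also: lentivirally expressed fusions sorted by FACS into six bins by GFP to DsRed ratio, PSI derived from sequencing read proportions per bin multiplied by bin number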
# Recorded conditions: c terminus: a fixed tail appended
Entries annotated with measured protein stability index
// response body must contain only the number

Sample records with protein stability index:
TDCSYSCHCLKGFTLNPDKKTCRR [D3C] = 2.17
TDDSYCCHCLKGFTLNPDKKTCRR [S6C] = 2.55
TDDSYSCHCLRGFTLNPDKKTCRR [K11R] = 2.04
TDMSYSCHCLKGFTLNPDKKTCRR [D3M] = 2.31
TDDSYSCHTLKGFTLNPDKKTCRR [C9T] = 3.24
TDDSYSCHCLKGFTLNPDKKTGRR [C22G] = 2.27

Kindly indicate its recorded protein stability index. Item: TDDSYSCHCLIGFTLNPDKKTCRR [K11I] 2.08

Kindly indicate its recorded protein stability index. Item: TDDSYSCHALKGFTLNPDKKTCRR [C9A] 4.6

Kindly indicate its recorded protein stability index. Item: TDDSYSGHCLKGFTLNPDKKTCRR [C7G] 4.45

Kindly indicate its recorded protein stability index. Item: TDDSYSCHCLKGFTLNPVKKTCRR [D18V] 2.42

Kindly indicate its recorded protein stability index. Item: TDDSYSCHCLKGQTLNPDKKTCRR [F13Q] 2.02

Kindly indicate its recorded protein stability index. Item: TDDSYSCHCLKGFTLRPDKKTCRR [N16R] 2.75
